Target: Lysine-specific demethylase 4A (Homo sapiens)
Assay: qHTS Assay for Inhibitors of JMJD2A-Tudor Domain; further: nearly all actives have a fitted effect of over 50% in size
Settings: AlphaScreen JMJD2A-Tudor / H3K4me3 peptide binding; series mostly up to 114 µM
Out of some 390,000 compounds screened, about 17,000 (4.4%) were called active. Another 8% or so got no clear call; they are omitted. The call rests on the fitted dose curve; in most records, active means well fitted inhibition curve with a large enough effect; inconclusive means small, poorly fitted or top-dose-only effect; inactive means no such curve, though single readings can be large or run the other way. The full list was thinned out, with actives kept by preference.
Hello, when you answer, please use one of the following outcomes: Yes (active), No (inactive)

Query: recorded result category for CN(CC(=O)NCCc1ccc(F)cc1)CC(=O)Nc1ccc(F)c(F)c1F in this test
No

Query: recorded result category for CCc1ccc(NC2Nc3cc(C)nn3S2)cc1 (stereo unspecified) in this test
Yes

Query: recorded result category for CCOC(=O)c1ccc(NC2Nc3cc(C)nn3S2)cc1 (stereo unspecified) in this test
No

Query: recorded result category for COc1ccc(-c2nn3c(-c4ccc(OC)cc4)nnc3c3ccccc23)cc1 in this test
No

Query: recorded result category for CC(/C=N/NC(=O)c1cc(-c2ccc3ccccc3c2)n[nH]1)=C\c1ccco1 in this test
No

Query: recorded result category for Cc1ccc(Cl)c(NC(=O)CN(C)CC(=O)Nc2ccc(F)c(F)c2F)c1Cl in this test
Yes

Query: recorded result category for Cc1ccc(CN2C(=O)SC(Nc3ccccc3)C2=O)cc1 (stereo unspecified) in this test
No

Query: recorded result category for Cc1n[nH]c(=O)n1-c1ccc(Oc2ccccc2)cc1 in this test
No

Query: recorded result category for Cc1ccc(-c2cc(C(=O)NC3CCN(Cc4ccccc4)CC3)c3ccccc3n2)cc1 in this test
No

Query: recorded result category for Cc1cc(-c2n[nH]c(=S)n2/N=C/C(Br)=C/c2ccccc2)n[nH]1 in this test
Yes

Query: recorded result category for Cc1cc(-c2n[nH]c(=S)n2/N=C/c2ccco2)n[nH]1 in this test
Yes

* * *

Target: Lysine-specific demethylase 4A (Homo sapiens)
Assay: qHTS Assay for Inhibitors of JMJD2A-Tudor Domain; further: nearly all actives have a fitted effect of over 50% in size
Conditions: AlphaScreen JMJD2A-Tudor / H3K4me3 peptide binding; series mostly up to 114 µM
In all, about 390,000 compounds went through this assay and about 17,000 (4.4%) were called active. About 8% were inconclusive and are not listed. Calls come from the whole dose curve; as a rule, active = well fitted inhibition curve with a large enough effect; inconclusive = small, poorly fitted or top-dose-only effect; inactive = no such curve, though single readings can be large or run the other way. Shown is part of a subset that was picked to be rich in actives.
Hello, when you answer, please use one of the following outcomes: y (active), n (inactive)

Query: recorded result category for CCN1C(=O)[C@@H]2[C@@H](c3ccc(-c4ccc(OC)cc4)c(OC)c3)N3CCC[C@@]3(C(=O)OC)[C@@H]2C1=O in this test
n

Query: recorded result category for Clc1ccc(CSc2nncn3c2cc2occc23)cc1 in this test
y

Query: recorded result category for Cc1ccc(/C=N/NC(=O)C2=NNC(c3ccccc3)(c3ccccc3)C2)c(O)c1 in this test
n

Query: recorded result category for CCOC(=O)C1CCC(CN(Cc2ccc(OC)cc2)S(=O)(=O)c2ccc(F)c(C(=O)Nc3cc(C)ccc3C)c2)CC1 (stereo not given) in this test
n

Query: recorded result category for Cc1ccc(C2=C/C(=C\c3cccnc3)C(=O)O2)cc1 in this test
n

Query: recorded result category for O=C(O)/C(=C/c1cccnc1)NC(=O)c1ccccc1 in this test
n

Query: recorded result category for COc1cc(OC)c(NC(=O)c2nc(-c3ccncc3)no2)cc1Cl in this test
n

Query: recorded result category for Clc1ccccc1CSc1nncn2c1cc1occc12 in this test
n

Query: recorded result category for Oc1ccc2nc(Cc3ccccc3)[nH]c2c1 in this test
n

Query: recorded result category for COc1ccc(CNC(=O)COCc2cc(-c3cccs3)on2)cc1OC in this test
n

* * *

Target: Lysine-specific demethylase 4A (Homo sapiens) (UniProt O75164)
Sequence (O75164 whole entry, looked up, the tested form may be a part): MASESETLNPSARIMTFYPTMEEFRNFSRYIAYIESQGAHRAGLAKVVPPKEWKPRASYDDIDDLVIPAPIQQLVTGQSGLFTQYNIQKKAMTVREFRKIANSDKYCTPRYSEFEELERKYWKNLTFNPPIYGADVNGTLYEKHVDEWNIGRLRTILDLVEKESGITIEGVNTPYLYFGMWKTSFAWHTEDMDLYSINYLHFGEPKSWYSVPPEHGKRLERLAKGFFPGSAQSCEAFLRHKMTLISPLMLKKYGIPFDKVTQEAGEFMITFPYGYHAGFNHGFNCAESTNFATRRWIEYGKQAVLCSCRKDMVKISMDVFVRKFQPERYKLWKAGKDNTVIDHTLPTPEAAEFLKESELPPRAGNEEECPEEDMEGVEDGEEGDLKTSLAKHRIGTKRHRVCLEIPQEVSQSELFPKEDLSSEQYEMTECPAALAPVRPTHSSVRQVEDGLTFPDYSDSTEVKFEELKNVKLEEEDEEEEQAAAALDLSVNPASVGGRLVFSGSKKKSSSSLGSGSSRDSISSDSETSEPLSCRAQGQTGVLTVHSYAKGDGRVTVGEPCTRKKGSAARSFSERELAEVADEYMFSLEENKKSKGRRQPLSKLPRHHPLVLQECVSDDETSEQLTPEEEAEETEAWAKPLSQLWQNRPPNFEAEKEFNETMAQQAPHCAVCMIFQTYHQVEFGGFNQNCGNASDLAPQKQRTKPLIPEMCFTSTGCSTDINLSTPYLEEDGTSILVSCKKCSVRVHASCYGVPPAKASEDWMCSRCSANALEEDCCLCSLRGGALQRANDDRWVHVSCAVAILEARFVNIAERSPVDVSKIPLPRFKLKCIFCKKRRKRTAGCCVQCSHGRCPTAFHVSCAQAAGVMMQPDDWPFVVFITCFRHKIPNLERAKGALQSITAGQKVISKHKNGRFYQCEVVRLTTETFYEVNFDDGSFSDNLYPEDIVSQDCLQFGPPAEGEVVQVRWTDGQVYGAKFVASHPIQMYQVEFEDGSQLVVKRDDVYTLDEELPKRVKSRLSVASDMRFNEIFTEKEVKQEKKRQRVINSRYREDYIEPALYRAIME
Experiment: qHTS Assay for Inhibitors of JMJD2A-Tudor Domain; further: nearly all actives have a fitted effect of over 50% in size
Conditions: AlphaScreen JMJD2A-Tudor / H3K4me3 peptide binding; series mostly up to 114 µM
Source text: JMJD2A is a jumonji-domain-containing lysine demethylase that uses Fe(II) together with 2-OG to effect oxidative demethylation of histones. Methylation is one of many […] modification that affect epigenetic transcription. […] A quantitative high throughput AlphaScreen has been developed to identify small molecule inhibitors based on a protocol published by NCGC and SGC [4]. […] [2] Yasgar, et al. Compound Management for Quantitative High-Throughput Screening. […]
Among all 390,000 compounds or so, about 17,000 (4.4%) were called active. Inconclusive results (about 8%) are left out. The call rests on the fitted dose curve; in most records, active means well fitted inhibition curve with a large enough effect; inconclusive means small, poorly fitted or top-dose-only effect; inactive means no such curve, though single readings can be large or run the other way. Many of the other results were omitted from the sample, so actives are more common in it than they were.
Hello, when you answer, please use one of the following outcomes: active, inactive

Query: recorded result category for COC(C(=O)Nc1ccc(C(C)=O)cc1)c1ccccc1 (stereo unspecified) in this test
inactive

Query: recorded result category for CCN(CC)c1ccc(/C=N/Nc2nc(C)cc(C)n2)c(O)c1 in this test
active

Query: recorded result category for CCN(CC)P(=O)(/C(Cl)=C\Nc1c(C)n(C)n(-c2ccccc2)c1=O)N(CC)CC in this test
active

Query: recorded result category for CCOCCn1ccc2c(OCC(=O)NCc3ccc(C)cc3)cccc2c1=O in this test
inactive

Query: recorded result category for CC(O)CN(Cc1ccc(Cl)cc1)CC(C)O (stereo unspecified) in this test
active

Query: recorded result category for O=C(CC(c1cccs1)N1Cc2ccccc2C1=O)Nc1ccc(F)cc1F (stereo unspecified) in this test
inactive

Query: recorded result category for OCCN(Cc1ccccc1)Cc1ccc(Cl)cc1 in this test
active

Query: recorded result category for Nn1c(SCC(=O)Nc2nccs2)nncc1=O in this test
active

Query: recorded result category for Cc1c(NC(=S)Nc2ccccc2)c(=O)n(-c2ccccc2)n1C in this test
inactive

Query: recorded result category for CN(C(=O)CN(CCO)CC(=O)N(C)C(C)(C)Cc1ccccc1)C(C)(C)Cc1ccccc1 in this test
inactive

Query: recorded result category for COc1ccc(NC(C(=O)Nc2cccc(C(C)=O)c2)c2ccccc2)cc1 (stereo unspecified) in this test
active

* * *

Biological target: Lysine-specific demethylase 4A (Homo sapiens)
Assay: qHTS Assay for Inhibitors of JMJD2A-Tudor Domain; further: nearly all actives have a fitted effect of over 50% in size
Details: AlphaScreen JMJD2A-Tudor / H3K4me3 peptide binding; series mostly up to 114 µM
Hit rate of the full screen: of about 390,000 compounds, about 17,000 (4.4%) were called active. Another 8% or so got no clear call; they are omitted. Calls come from the whole dose curve; as a rule, active = well fitted inhibition curve with a large enough effect; inconclusive = small, poorly fitted or top-dose-only effect; inactive = no such curve, though single readings can be large or run the other way. What follows is part of a selection rich in actives, with near analogues and random picks from the rest.
Hello, when you answer, please use one of the following outcomes: active, inactive

Query: recorded result category for CC(=O)Nc1cc(C(=O)NCc2ccc(F)cc2)ccc1Sc1ccc(F)cc1 in this test
inactive

Query: recorded result category for CC(=O)c1ccc(NC(=O)COc2ccccc2-c2nc(-c3ccccc3)no2)cc1 in this test
inactive

Query: recorded result category for COc1ccc(N2C(=O)CC(Sc3n[nH]c(-c4ccc(C)cc4)n3)C2=O)cc1 (stereo not given) in this test
active

Query: recorded result category for CCN(C(=O)Cn1cc(S(=O)(=O)N2CCN(c3ccccc3F)CC2)c2ccccc2c1=O)c1ccc(C)c(C)c1 in this test
inactive

Query: recorded result category for COc1ccc(N=Nc2c(-c3ccc(OC)cc3)[nH]oc2=O)cc1 in this test
inactive

* * *

Target: Lysine-specific demethylase 4A (Homo sapiens) (UniProt O75164)
Assay: qHTS Assay for Inhibitors of JMJD2A-Tudor Domain; further: nearly all actives have a fitted effect of over 50% in size
Details: AlphaScreen JMJD2A-Tudor / H3K4me3 peptide binding; series mostly up to 114 µM
The whole screen tested about 390,000 compounds, of which about 17,000 (4.4%) were called active. Roughly 8% stayed inconclusive and do not appear here. Calls follow the shape of the dose curve; as a rule, active = well fitted inhibition curve with a large enough effect; inconclusive = small, poorly fitted or top-dose-only effect; inactive = no such curve, though single readings can be large or run the other way. Shown is part of a subset that was picked to be rich in actives.
Hello, when you answer, please use one of the following outcomes: active, inactive

Query: recorded result category for CSc1ccccc1NC(=O)CCS(=O)(=O)c1nc(-c2cccs2)cc(C(F)(F)F)n1 in this test
active

Query: recorded result category for Cc1nnc(N/N=C/c2ccccn2)[nH]c1=O in this test
active

Query: recorded result category for Cc1ccc2nc(N3CCN(c4cccc(Cl)c4)CC3)c3nnnn3c2c1 in this test
inactive

Query: recorded result category for O=C(COc1ccc(Cl)cc1Cl)N/N=C/c1ccccn1 in this test
inactive

Query: recorded result category for CCOc1ccc(CCNC(=O)Cn2nc(CC)n3c(cc4sc(CC)cc43)c2=O)cc1OCC in this test
inactive

Query: recorded result category for CCOc1ccc(-n2nc3ccc(NC(=O)c4ccc(OC)c(Cl)c4)cc3n2)cc1 in this test
inactive

Query: recorded result category for CCOc1ccc(-n2c(SCC(=O)NCc3ccccc3)nc3n[nH]c(C)c3c2=N)cc1 in this test
inactive

Query: recorded result category for CCc1cc2c(cc3c(=O)n(CC(=O)NCCc4ccc(OC)c(OC)c4)ncn32)s1 in this test
active

Query: recorded result category for O=C(CCSCc1cccc(F)c1)NCc1ccccc1 in this test
inactive

Query: recorded result category for CC(=O)c1ccc(N2CCN(C3C(=O)c4ccccc4N3C(C)=O)CC2)cc1 (stereo not given) in this test
inactive
